The reported measurements were obtained from patent US20250011410A1.

In this section, each of the binders is paired with its reported Kd.
measurementTarget: T1, canine NGF tagged at the C-terminus with the Flag tag (canine, UniProt A0A8I3PYI3 122-241)
T1 construct: mature; Expressed with baculovirus technology; also called feline NGF (processed form identical)
T1 sequence (A0A8I3PYI3 entry or part of it): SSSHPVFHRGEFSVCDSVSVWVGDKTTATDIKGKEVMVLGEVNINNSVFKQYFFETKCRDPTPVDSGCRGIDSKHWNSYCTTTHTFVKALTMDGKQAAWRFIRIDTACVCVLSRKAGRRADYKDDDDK
measurementNotes: SPR off-rate screen, Fab-SASA on BSA chip
Please respond with the number in nM and leave the unit unwritten.

felinized clone 101 Fab-SASA variant F112H (VH) (Fab, V domains shown, not shown: small tags and cut ends) VH: DVQLVESGGDLVKPGGSLRLTCVASGLSLTSSSMSWVRQAPGKGLQWVSTIYSNGGTYYTDSVKGRFTISKDNAENTLYLQMNNLKTEDTATYYCASIYYYDADYLHWYFDHWGQGALVTVSS VL: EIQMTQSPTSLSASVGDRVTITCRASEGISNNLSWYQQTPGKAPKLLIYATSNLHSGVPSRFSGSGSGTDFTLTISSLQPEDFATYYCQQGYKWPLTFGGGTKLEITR : 1.95

Read off the recorded Kd for felinized clone 101 Fab-SASA variant T30N (VH) (Fab, V domains shown, not shown: small tags and cut ends) VH: DVQLVESGGDLVKPGGSLRLTCVASGLSLNSSSMSWVRQAPGKGLQWVSTIYSNGGTYYTDSVKGRFTISKDNAENTLYLQMNNLKTEDTATYYCASIYYYDADYLHWYFDFWGQGALVTVSS VL: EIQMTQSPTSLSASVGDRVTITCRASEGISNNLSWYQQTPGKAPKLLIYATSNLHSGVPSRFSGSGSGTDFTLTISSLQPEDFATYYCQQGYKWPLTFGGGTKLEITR
2.12
